# assay_name: Lyophilisation solubility assay (LYSA)
# Type: physicochemical
# condition_info: aqueous buffer, thermodynamic from solid; 0.05 M phosphate buffer, pH 6.5; HPLC-UV; <1.0 = the detection limit; read-out: Lysa
measured_endpoint: solubility thermodynamic (µg/mL)

CNc1cc(F)c(F)c2c1[nH]c1ncc(-c3cnc(OC)nc3)c(N3CCOC(CN)C3)c12 (stereo not shown) [Example 1.33]; 475
CCNc1cc(Cl)cc2c1[nH]c1ncc(-c3cncc(C#N)c3)c(N3CC[C@@H](N)C3)c12 [Example 1.05]; 28
CNc1cc(F)c(F)c2c1[nH]c1ncc(-c3cnc(OC)nc3)c(N3CCC(C)(CN)C3)c12 (stereo not shown) [Example 1.36]; 140
CNc1cc(F)c(F)c2c1[nH]c1ncc(-c3cnc(C4(C(=O)O)CC4)nc3)c(N(C)C)c12 [Example 2.02]; 160
CNc1cc(F)c(F)c2c1[nH]c1ncc(-c3cncc(C#N)c3)c(N3CCC4(C[C@@H]4N)C3)c12 (stereo in doubt) [Example 1.29]; 16

(a) CNc1cc(F)c(F)c2c1[nH]c1ncc(-c3cncc(C#N)c3)c(N3CCCC(F)(CN)C3)c12 (stereo not shown) [Example 1.54]
(b) CNc1c(F)c(F)cc2c1[nH]c1ncc(-c3cnc(C4(C(=O)O)CC4)nc3)c(N(C)C)c12 [Example 2.03]
(c) CNc1cc(F)c(F)c2c1[nH]c1ncc(-c3cncc(C#N)c3)c(N3CCCC(N)C3)c12 (stereo not shown) [Example 1.46]
(d) CCNc1cc(F)c(F)c2c1[nH]c1ncc(-c3cncc(C#N)c3)c(N3CC[C@@H](N)C3)c12 [Example 1.04]
(e) CNc1cc(F)c(F)c2c1[nH]c1ncc(-c3cncc(C#N)c3)c(N3CC4CC4(CN)C3)c12 (stereo not shown) [Example 1.32]
stdin: Arrange the 5 molecules from largest to smallest solubility thermodynamic. Please respond by ranking the labels in the order requested.
stdout: b, d, a, c, e

(P) CNc1cc(F)c(F)c2c1[nH]c1ncc(-c3cncc(C#N)c3)c(N3CCCC(CN)C3)c12 (stereo not shown) [Example 1.21]
(Q) CNc1cc(F)cc2c1[nH]c1ncc(-c3cnc(OC)nc3)c(N3CC(CN)C(F)(F)C3)c12 (stereo not shown) [Example 3.02]
(R) CNc1cc(F)c(F)c2c1[nH]c1ncc(-c3cnc(OC)nc3)c(N3CCCC(N)C3)c12 (stereo not shown) [Example 1.47]
stdin: Ordering: ascending solubility thermodynamic. Please respond by ranking the labels in the order requested.
stdout: R, P, Q
(R: 19 µg/mL, P: 44 µg/mL, Q: 196 µg/mL)

(I) CCNc1cc(Cl)cc2c1[nH]c1ncc(-c3cncc(C#N)c3)c(N3CCC(N)C3)c12 (stereo not shown) [Example 1.03]
(II) CNc1cc(F)c(F)c2c1[nH]c1ncc(-c3cncc(C#N)c3)c(N3CCC[C@@H](CN)C3)c12 [Example 1.40]
stdin: Endpoint returns whichever of I and II has the numerically higher solubility thermodynamic. Return value: the label identifying the chosen record.
stdout: II

// data source = patent US20210309657A1
